meta.source: patent USRE48461E1

Tested on: AR mRNA
ASSAY_INFO: Dose-dependent antisense inhibition of human AR in HuVEC cells (electroporation, qRT-PCR RTS3559, IC50)
Type: cell-based
CONDITIONS_USED: Table 30; 750.0 nM, HuVEC, electroporation, approximately 16 hours
Oligonucleotides are written 5' to 3', each unit as a sugar letter and its base; * is a phosphorothioate linkage, no mark a phosphodiester; rarer units and linkages stand in square brackets, end groups in braces. Plain capitals give the bases only. k = constrained ethyl (cEt); [5mC] = 5-methylcytosine; d = 2'-deoxy (DNA)
PARAMETER_MEASURED: percent inhibition of AR, 750.0 nM (%)
Answers are plain numbers, in %.

Example substances with recorded percent inhibition of AR, 750.0 nM:
>>> obs_value("583738 (antisense kG*kT*kT*d[5mC]*dT*dG*dG*dA*dT*d[5mC]*dA*d[5mC]*dT*kT*k[5mC]*kG) [compound 583738]")
56
>>> obs_value("583709 (antisense kG*k[5mC]*kT*dT*dG*dG*d[5mC]*dT*dG*dA*dA*dT*d[5mC]*kT*kT*k[5mC]) [compound 583709]")
70
>>> obs_value("549458 (kG*kT*kT*dG*dA*dT*dT*dT*dA*dA*dT*dG*dG*kT*kT*kG) [compound 549458]")
92
>>> obs_value("583712 (antisense k[5mC]*k[5mC]*kT*dT*dG*dA*dG*d[5mC]*dT*dT*dG*dG*d[5mC]*kT*kG*kA) [compound 583712]")
72

Go through the items and report each one's percent inhibition of AR, 750.0 nM.
1. 549372 (kA*kA*kG*dT*dT*dG*dT*dA*dG*dT*dA*dG*dT*k[5mC]*kG*k[5mC]) [compound 549372]
2. 583692 (antisense kG*kT*kG*dA*dT*dG*dA*dT*dG*d[5mC]*dG*dG*dT*kA*kG*kT) [compound 583692]
3. 583667 (antisense k[5mC]*kG*k[5mC]*dT*d[5mC]*dT*dG*dA*d[5mC]*dA*dG*d[5mC]*d[5mC]*kT*k[5mC]*kA) [compound 583667]
4. 583687 (antisense kG*kG*kT*dA*dG*dT*d[5mC]*dG*d[5mC]*dT*dG*d[5mC]*dA*kG*k[5mC]*kT) [compound 583687]
5. 583727 (antisense kG*kA*kT*dT*d[5mC]*dT*dG*dG*dA*dA*dA*dG*d[5mC]*kT*k[5mC]*k[5mC]) [compound 583727]
6. 583688 (antisense kG*k[5mC]*kG*dG*dT*dA*dG*dT*d[5mC]*dG*d[5mC]*dT*dG*k[5mC]*kA*kG) [compound 583688]
7. 583637 (antisense kA*kT*k[5mC]*dT*d[5mC]*dT*dG*dG*d[5mC]*dT*d[5mC]*d[5mC]*dG*k[5mC]*kA*k[5mC]) [compound 583637]
8. 583734 (antisense kT*k[5mC]*kA*d[5mC]*dT*dT*d[5mC]*dG*d[5mC]*dG*d[5mC]*dA*d[5mC]*kG*k[5mC]*kT) [compound 583734]

(A)
1: 69; 2: 61; 3: 73; 4: 83; 5: 70; 6: 50; 7: 59; 8: 74

(Q) State the recorded percent inhibition of AR, 750.0 nM for this entry: 583728 (antisense kG*k[5mC]*kT*d[5mC]*dT*dG*dG*dA*dA*d[5mC]*dA*dG*dA*kT*kT*k[5mC]) [compound 583728]
(A) 67
